# method.description: Ratio of drug level in brain to blood in Sprague-Dawley rat after 1 hr
# Assay type: ADME, tissue-based
# condition.info: read-out: BBR
assay.readout: Kp at 1 h
Lab note: jot the number down without any unit.

Lab book: Kp at 1 h of `CC(=O)Nc1cccc(CCN2CCN(c3cccc4nc(C)ccc34)CC2)c1.Cl.Cl` noted as 0.7

Lab book: Kp at 1 h of `Cc1ccc2c(N3CCN(CCc4cccc(NS(C)(=O)=O)c4)CC3)cccc2n1.Cl.Cl` noted as 0.5

Lab book: Kp at 1 h of `Cc1ccc2c(N3CCN(CCc4cccc(N5CCNC5=O)c4)CC3)cccc2n1.Cl.Cl` noted as 0.5
